# assayText: Inhibition of Mycobacterium tuberculosis ribonucleotide reductase by [3H]CDP assay
attributeMeasured: IC50

What value of IC50 has been reported for the following substance? Ac-EDDDWDF-OH
20 µM

---

# experimentalSystem: Ribonucleoside-diphosphate reductase subunit alpha (Mycobacterium tuberculosis)
# assayText: Displacement of Dansyl-Gly-Ser-Gly-Glu-Asp-Asp-Asp-Trp-Asp-Phe from C-terminal R1 subunit of Mycobacterium tuberculosis ribonucleotide reductase by fluorescence polarization assay
pKd: −log10 of the molar value.
Returns label 1 if the recorded pKd is greater than or equal to 5, and label 0 otherwise.

As a guide, the following entries are already answered.
sampleSmiles: O=C(O)C[C@H](NC(=O)OCC1c2ccccc2-c2ccccc21)C(=O)Nc1cccc2c1N[C@@H](Cc1c[nH]c3ccccc13)C(=O)N(CC(=O)N[C@@H](Cc1ccccc1)C(=O)O)C2
experimentalSystem: Ribonucleoside-diphosphate reductase subunit alpha (Mycobacterium tuberculosis)
class: label 1
//
sampleSmiles: CC(=O)N[C@@H](CCC(=O)O)C(=O)N[C@@H](CC(=O)O)C(=O)N[C@@H](CC(=O)O)C(=O)Nc1cccc2c1N[C@@H](Cc1c[nH]c3ccccc13)C(=O)N(CC(=O)N[C@@H](Cc1ccccc1)C(=O)O)C2
experimentalSystem: Ribonucleoside-diphosphate reductase subunit alpha (Mycobacterium tuberculosis)
class: label 0
//
sampleSmiles: O=C(Nc1cccc2c1N[C@@H](Cc1c[nH]c3ccccc13)C(=O)N(CCO)C2)OCC1c2ccccc2-c2ccccc21
experimentalSystem: Ribonucleoside-diphosphate reductase subunit alpha (Mycobacterium tuberculosis)
class: label 0
//
sampleSmiles: CC(=O)N[C@@H](CC(=O)O)C(=O)Nc1cccc2c1N[C@@H](Cc1c[nH]c3ccccc13)C(=O)N(CC(=O)N[C@@H](Cc1ccccc1)C(=O)O)C2
experimentalSystem: Ribonucleoside-diphosphate reductase subunit alpha (Mycobacterium tuberculosis)
class: label 0

Check this compound for pKd at or above 5: CC(=O)N[C@@H](CCC(=O)O)C(=O)N[C@@H](CC(=O)O)C(=O)N[C@@H](CC(=O)O)C(=O)N[C@@H](CC(=O)O)C(=O)Nc1cccc2c1N[C@@H](Cc1c[nH]c3ccccc13)C(=O)N(CC(=O)N[C@@H](Cc1ccccc1)C(=O)O)C2
label 0

---

# experimentalSystem: Ribonucleoside-diphosphate reductase subunit alpha (Mycobacterium tuberculosis, UniProt P9WH75)
# Sequence (P9WH75 whole entry): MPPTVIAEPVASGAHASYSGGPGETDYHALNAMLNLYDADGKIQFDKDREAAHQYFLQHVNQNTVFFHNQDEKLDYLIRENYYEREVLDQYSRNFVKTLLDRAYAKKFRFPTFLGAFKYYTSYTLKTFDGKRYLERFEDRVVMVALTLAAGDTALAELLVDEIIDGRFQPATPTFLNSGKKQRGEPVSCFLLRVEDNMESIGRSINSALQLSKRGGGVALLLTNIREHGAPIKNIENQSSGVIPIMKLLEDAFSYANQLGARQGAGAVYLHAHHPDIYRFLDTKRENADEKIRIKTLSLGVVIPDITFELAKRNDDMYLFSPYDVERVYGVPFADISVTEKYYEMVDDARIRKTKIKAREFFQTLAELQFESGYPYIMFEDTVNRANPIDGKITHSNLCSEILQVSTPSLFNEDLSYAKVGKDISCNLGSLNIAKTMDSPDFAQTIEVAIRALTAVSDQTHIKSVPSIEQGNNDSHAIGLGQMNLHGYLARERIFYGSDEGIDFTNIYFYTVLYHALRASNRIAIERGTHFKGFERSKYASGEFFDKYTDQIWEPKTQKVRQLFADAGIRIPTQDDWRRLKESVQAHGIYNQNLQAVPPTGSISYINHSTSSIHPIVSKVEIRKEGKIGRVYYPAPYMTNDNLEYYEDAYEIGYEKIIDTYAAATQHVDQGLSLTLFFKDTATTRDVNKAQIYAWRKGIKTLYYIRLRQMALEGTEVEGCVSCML
# assayText: Displacement of Dansyl-Gly-Ser-Gly-Glu-Asp-Asp-Asp-Trp-Asp-Phe from C-terminal R1 subunit of Mycobacterium tuberculosis ribonucleotide reductase by fluorescence polarization assay
attributeMeasured: Kd (µM)
Expressed in µM, but write only the number.

Form field: reported Kd of Ac-EDDDWDF-OH
8.3
